# ASSAYED_TARGET: Follistatin (Homo sapiens) (UniProt P19883)
# Sequence (P19883 whole entry, looked up): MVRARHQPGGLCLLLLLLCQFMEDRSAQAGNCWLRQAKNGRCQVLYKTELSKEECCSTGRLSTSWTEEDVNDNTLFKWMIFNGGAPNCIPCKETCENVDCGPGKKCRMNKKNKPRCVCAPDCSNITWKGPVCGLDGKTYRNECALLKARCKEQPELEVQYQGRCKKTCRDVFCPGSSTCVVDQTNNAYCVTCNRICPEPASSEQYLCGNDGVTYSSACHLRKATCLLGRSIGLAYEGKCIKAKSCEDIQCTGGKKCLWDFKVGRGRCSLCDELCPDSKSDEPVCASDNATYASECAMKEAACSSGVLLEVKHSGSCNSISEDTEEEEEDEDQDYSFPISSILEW
# MEASUREMENT_NOTES: FST protein binding to printed compounds – biochemical, small-molecule microarray, 635/667 nm fluorescence, primary screen (AID 1132)
# CONDITIONS_USED: 635 nm fluorescence, higher = more signal
Parameter threshold = 0.2. Response is class 1 when composite z-score meets or exceeds it, else class 0.

COMPOUND	CLASS_LABEL
COCCOC(=O)N1C(=O)[C@@]2(c3cc(C#CC4(O)CCCCCC4)ccc31)[C@H](c1ccc(O)cc1)N1[C@H](c3ccccc3)[C@H](c3ccccc3)OC(=O)[C@H]1[C@@H]2C(=O)N1CCCCCCC1	class 1
COc1ccc(C(O)C2C=CC3C(=O)NC(=O)C3N2Nc2ccc(Cl)cc2Cl)c2ccccc12 (configuration not stated)	class 1
COc1cc(C(O)C2C=CC3C(=O)N(c4ccccc4)C(=O)C3N2Nc2ccccc2F)cc(OC)c1OC (configuration not stated)	class 1
C[C@]1(C(=O)O)c2ccccc2C(=O)N(Cc2cc(F)cc(C(F)(F)F)c2)[C@H]1c1ccc(CO)cc1	class 1
O=C1c2ccccc2[C@@]2(Cc3ccccc3N(Cc3ccccc3)C2=O)[C@H](c2ccc(CO)cc2)N1Cc1ccccc1Cl	class 0
CC(C)=CCCC=C(C)C(O)C1C=CC2C(=O)N(c3ccccc3)C(=O)C2N1Nc1ccc(C#N)cc1 (configuration not stated)	class 1
CN1C(=O)C2C(C1=O)C1C=C(CCCO)C2C(C2CC2)N1Cc1cccc(OC(F)(F)F)c1 (configuration not stated)	class 0

====

# MEASUREMENT_NOTES: viability profiling in MM1S myeloma cells – cell-based, resazurin fluorescence, basal, 24 h, PK04 Diversity Set, profiling panel (AID 1174);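 further: MM1S multiple myeloma cell line; test concentration not given here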
# CONDITIONS_USED: higher = more signal, called active from +8 up or from −8 down
METRIC: z-score

COMPOUND	ASSAY_RESULT
CC(=O)NCCCC[C@@H]1NC(=O)[C@H]2C[C@@H](C(=O)NCCCCCCNC(=O)CS)[C@@H](c3cccc(OCCO)c3)N2C1=O	-0.469
CCCCCCc1nc(-c2ccc(-c3ccc(Cl)c(Cl)c3)o2)cc2c1[Si](C(C)C)(C(C)C)OC2	-0.273
C=CCNC(=O)[C@H]1[C@@H]2C(=O)O[C@@H](c3ccccc3)[C@@H](c3ccccc3)N2[C@@H](c2ccc(OCCO)cc2)[C@]12C(=O)Nc1ccccc12	1.13
CO[C@H]1O[C@H](CO)[C@@H](OC(=O)Nc2ccccc2)[C@H](OC(=O)Nc2ccccc2)[C@H]1OC(=O)Nc1ccccc1	-2.78
COCCOC(=O)N1C(=O)[C@@]2(c3cc(C#CCC(C(=O)OC)C(=O)OC)ccc31)[C@H](C(N)=O)[C@H]1C(=O)O[C@H](c3ccccc3)[C@H](c3ccccc3)N1[C@@H]2c1ccc(O)cc1	-2.92
COCCOC(=O)N1C(=O)[C@@]2(c3ccccc31)[C@H](c1ccc(O)cc1)N1[C@H](c3ccccc3)[C@H](c3ccccc3)OC(=O)[C@H]1[C@@H]2C(=O)N1CCCCCCC1	0.0065
CC(C)=C1C(=O)C(c2ccccc2)=C2CN3C(=O)N(CCc4ccccc4)C(=O)[C@]3(C)[C@H]21	-1.56
C=C(COC)C(=O)CC[C@@H](OC(=O)c1ccccc1-c1ccccc1C(=O)O)c1ccc(OCCO)cc1	-0.105
CCOC(=O)C[C@H]1[C@H](OC(=O)c2ccccc2-c2ccccc2)[C@@H](NC(=O)C2CCCCC2)c2cc(OCCCO)ccc2N1C(=O)c1ccc2ccccc2n1	-0.0667
CC(C)NC(=O)[C@@H]1c2ccccc2C(=O)N(Cc2ccc(OC(F)(F)F)cc2)[C@H]1c1ccc(CO)cc1	0.155
C#CCN1[C@@H](Cc2ccccc2)C(=O)O[C@H](Cc2ccccc2)[C@@H]1/C=C/C1CC1	1.56
C=CC1c2cc(O)c(OC)cc2CCN1C (centres undefined)	-0.728
NC(=O)N1C(=O)C2C(C1=O)C1C=C(CCCO)C2C(C2CC2)N1Cc1sc2ccccc2c1Cl (centres undefined)	0.691
NC(=O)N1C(=O)C2C(C1=O)C1C=C(CCCO)C2C(c2ccc(CN3CCCC3)cc2)N1Cc1sc2ccccc2c1Cl (centres undefined)	-1.29
COc1ccc(C(O)C2C=CC3C(=O)N(C)C(=O)C3N2N(c2ccccc2)c2ccccc2)cc1 (centres undefined)	-1.61
NC(=O)NCC#Cc1ccc2c(c1)[C@]1(C(=O)N2)[C@H](c2ccc(OCCO)cc2)N2[C@H](c3ccccc3)[C@H](c3ccccc3)OC(=O)[C@H]2[C@@H]1C(=O)O	0.117
[N-]=[N+]=Nc1ccccc1[C@@H]1OC(c2ccc(OCCCO)cc2)=N[C@]1(CCS(=O)(=O)c1ccccc1)C(=O)NCC(O)CO (some centres undefined)	0.321
C=C(COC)/C(=C/C[C@@H](OC(C)=O)c1ccccc1OCCO)c1cnc2ccccc2c1	-0.975
[N-]=[N+]=Nc1ccccc1[C@@H]1OC(c2ccc(OCCCO)cc2)=N[C@]1(Cc1ccccc1)C(=O)NCCN1CCOCC1	-1.37
N#Cc1ccc(C(O)C2C=CC3C(=O)NC(=O)C3N2Nc2ccc(Cl)cc2Cl)cc1 (centres undefined)	-1.43
COc1ccc(C(=O)Nc2cccc(CN3C(=O)[C@@]4(O[C@@H](CC(=O)N5CCC[C@H]5CO)[C@H]([Si](C)(C)c5ccc(OC)cc5)[C@H]4C)c4ccccc43)c2)cc1	-1.17
O=C(N1CCOCC1)[C@@]1(Cc2ccccc2)COC(c2ccc(OCCCO)cc2)=N1	0.13
CCCC#C[Si](O[C@H](CC)c1cn(Cc2ccccc2)nn1)(C(C)C)C(C)C	-1.05
O=C1N(CCS(=O)(=O)c2ccccc2)c2ccccc2C[C@]12N=C(c1ccc(OCCCO)cc1)O[C@@H]2c1ccccc1	-2.11
CCOC(=O)c1cn(C[C@H](Cc2ccccc2)NC(=O)N[C@H](CO)CCc2oc(C(C)=O)c(C(=O)OC)c2C(=O)OC)nn1	0.225
CN(C)CCCC[C@@H]1NC(=O)[C@@H]2C[C@H](C(=O)NCCCCCCNC(=O)CS)[C@H](c3ccc(O)cc3)N2C1=O	-0.353
C=CCOC(=O)[C@@H]1[C@H]2C(=O)O[C@H](c3ccccc3)[C@H](c3ccccc3)N2[C@H](c2ccc(OCCOC(=O)[C@H]3C[C@H]4C(=O)N[C@@H](CCCCN(C)C)C(=O)N4[C@H]3c3ccc(O)cc3)cc2)[C@@]12C(=O)Nc1ccc(I)cc12	-0.467
CC(C)=CCCC(C)=CC(O)C1C=CC2C(=O)NC(=O)C2N1Nc1ccccn1 (centres undefined)	-0.58
O=C1C[C@@](C(=O)NCc2ccccc2)(c2ccc([N+](=O)[O-])cc2)[C@@H](c2ccc(CO)cc2)N1C1CCCCC1	-0.163
